Test system: SK-OV-3 ovarian
Experiment: NCI-60 one-dose screen, 48 h (100 = growth as untreated, 0 = no growth, -100 = all killed)
Conditions: 10 µM unless noted
This is part of a sample that, as a whole, favours compounds with a hit. Of some 83,000 tested, about 20% had one in any assay.
# label = Yes if growth < 80% else No

Here's what some known entries look like.
                                        smi  qualitative_label
0  N#C/C(=C/c1ccc([N+](=O)[O-])cc1)n1nnc2cc(F)c(F)cc21                 No
1  Cc1ccc(-c2csc(NC(=O)CN3CCN(c4cc5c(cc4F)c(=O)c(C(=O)O)cn5C4CC4)CC3)n2)cc1                Yes
2  C=CC(=O)NCc1ccc(Nc2nccc(-c3ccc(N4CCCC4)c(C#N)c3)n2)cc1                Yes

hey, is growth for CCOc1ccc(NC(=O)CSc2oc(-c3ccccc3)nc2S(=O)(=O)c2ccc(F)cc2)cc1 lower than 80% or not?
Yes

hey, is growth for COc1cccc([C@H]2c3[nH]c4ccccc4c3C[C@H]3C(=O)N(CCCCCCC(=O)NO)CC(=O)N23)c1 lower than 80% or not?
Yes

hey, is growth for COc1ccc2c3c([nH]c2c1)C(=O)c1nc(C)ccc1C3=O lower than 80% or not?
Yes

hey, is growth for O=C1NC(=O)c2c1c1c3ccccc3ccc1c1[nH]c3ccc(Br)cc3c21 lower than 80% or not?
Yes

hey, is growth for COc1cc(-c2nc(SCCC(C)C)nc(Nc3ccccc3Cl)c2C#N)cc(OC)c1OC lower than 80% or not?
No

hey, is growth for CCCCCOc1ccc(C(=O)/C(Br)=C/C(=O)O)cc1 lower than 80% or not?
No

hey, is growth for O=Cc1ccc([N+](=O)[O-])s1 lower than 80% or not?
No
